# Measured on: α1β2γ2 GABAA receptor (α1 subunit) (Rattus norvegicus, UniProt P18508+P62813+P63138)
# Construct: rat α1/β2/γ2L subunits expressed in HEK-293 cells; with GABAA receptor β2 (Gabrb2) and γ2L (Gabrg2) subunits
# Sequence (P62813 28-455): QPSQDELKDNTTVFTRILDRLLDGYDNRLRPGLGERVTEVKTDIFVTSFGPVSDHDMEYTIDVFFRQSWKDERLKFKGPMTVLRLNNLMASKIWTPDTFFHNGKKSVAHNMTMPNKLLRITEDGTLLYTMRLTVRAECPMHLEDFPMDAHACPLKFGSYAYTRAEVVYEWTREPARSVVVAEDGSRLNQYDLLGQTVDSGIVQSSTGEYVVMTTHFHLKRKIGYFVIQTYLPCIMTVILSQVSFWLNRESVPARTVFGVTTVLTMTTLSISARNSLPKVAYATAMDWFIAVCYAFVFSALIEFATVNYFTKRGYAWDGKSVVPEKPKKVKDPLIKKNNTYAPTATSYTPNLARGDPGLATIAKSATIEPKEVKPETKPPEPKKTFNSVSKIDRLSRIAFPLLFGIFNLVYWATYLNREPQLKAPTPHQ
# Sequence (P63138 26-474): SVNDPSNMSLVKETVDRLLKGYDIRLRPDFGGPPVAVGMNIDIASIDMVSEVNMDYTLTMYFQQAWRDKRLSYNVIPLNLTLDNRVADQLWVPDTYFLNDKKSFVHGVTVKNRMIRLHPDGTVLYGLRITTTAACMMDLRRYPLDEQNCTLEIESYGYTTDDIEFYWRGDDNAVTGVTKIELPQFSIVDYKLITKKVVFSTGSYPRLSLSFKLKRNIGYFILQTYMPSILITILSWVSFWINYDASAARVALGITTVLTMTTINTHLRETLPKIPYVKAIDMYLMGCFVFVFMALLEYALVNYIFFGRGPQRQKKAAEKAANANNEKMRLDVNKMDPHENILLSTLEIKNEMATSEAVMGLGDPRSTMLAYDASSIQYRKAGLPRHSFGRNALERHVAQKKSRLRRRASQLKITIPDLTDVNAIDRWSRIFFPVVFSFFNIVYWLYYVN
# Sequence (P18508 39-466): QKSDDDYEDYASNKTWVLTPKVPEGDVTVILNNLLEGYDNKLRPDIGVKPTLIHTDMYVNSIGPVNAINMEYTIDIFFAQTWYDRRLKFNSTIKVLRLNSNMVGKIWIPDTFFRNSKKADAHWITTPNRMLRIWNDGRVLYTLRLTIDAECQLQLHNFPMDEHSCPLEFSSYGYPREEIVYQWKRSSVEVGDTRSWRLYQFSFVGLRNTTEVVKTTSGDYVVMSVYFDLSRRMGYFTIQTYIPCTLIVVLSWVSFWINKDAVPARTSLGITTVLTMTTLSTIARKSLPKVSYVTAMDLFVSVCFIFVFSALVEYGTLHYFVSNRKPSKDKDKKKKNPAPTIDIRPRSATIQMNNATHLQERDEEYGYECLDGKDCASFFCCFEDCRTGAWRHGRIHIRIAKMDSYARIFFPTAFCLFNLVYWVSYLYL
# Assay remarks: whole-cell patch clamp dose-response, partial agonist
Metric name: pEC50
Notebook: values listed as pEC50 are -log10 of the concentration (mol/L).

Bench note: what pEC50 did O=S(=O)(O)C1CCNCC1 [P4S, piperidine-4-sulfonic acid] show?
4.34
